The measured values listed here are drawn from patent US7973075B2.

molecular target: GluR5 (Rattus norvegicus, UniProt P22756); construct: expressed in transfected cells; HEK 293 (patch clamp); experiment: Radioligand displacement ([3H]kainate), Example 1; assay type: binding; conditions: Tables 1-2; membranes of transfected COS-7 or HEK-T/17 cells; read-out: GluR5 binding affinity (displacement of [3H]kainate)
Sequence (P22756 with tags, fused parts or gaps isoform P22756-2): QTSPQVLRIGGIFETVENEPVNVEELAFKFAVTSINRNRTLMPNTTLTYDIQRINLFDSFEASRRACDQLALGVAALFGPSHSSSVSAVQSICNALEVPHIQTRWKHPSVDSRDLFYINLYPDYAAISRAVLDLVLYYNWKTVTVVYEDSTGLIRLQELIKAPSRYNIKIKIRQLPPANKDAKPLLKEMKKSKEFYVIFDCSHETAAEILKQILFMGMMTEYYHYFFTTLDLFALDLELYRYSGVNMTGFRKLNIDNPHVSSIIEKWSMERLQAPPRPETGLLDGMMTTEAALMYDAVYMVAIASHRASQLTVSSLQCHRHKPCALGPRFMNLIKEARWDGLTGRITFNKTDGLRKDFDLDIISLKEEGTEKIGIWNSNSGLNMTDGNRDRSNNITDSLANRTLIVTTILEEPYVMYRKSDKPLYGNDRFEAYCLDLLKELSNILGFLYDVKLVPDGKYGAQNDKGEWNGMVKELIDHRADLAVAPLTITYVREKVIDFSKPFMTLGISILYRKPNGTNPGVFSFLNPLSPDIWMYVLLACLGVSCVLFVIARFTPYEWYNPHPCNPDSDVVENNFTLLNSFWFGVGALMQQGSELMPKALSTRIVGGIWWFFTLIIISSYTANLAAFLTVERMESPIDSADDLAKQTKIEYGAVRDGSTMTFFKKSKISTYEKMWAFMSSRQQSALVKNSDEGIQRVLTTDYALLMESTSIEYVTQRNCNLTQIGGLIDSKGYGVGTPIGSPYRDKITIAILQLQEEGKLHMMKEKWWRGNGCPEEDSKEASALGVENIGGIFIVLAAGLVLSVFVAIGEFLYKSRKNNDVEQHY
Answer each item with its documented Ki.

Provide measured Ki value, entry: NC(CC1(C(=O)O)CC2OCC(O)C(O)C2O1)C(=O)O (stereo not drawn) [8-epi-neoDH, 8-epi-neodysiherbaine]
34 nM

Give the reported value of Ki for this record: N[C@@H](C[C@]1(C(=O)O)C[C@H]2OCC[C@@H](O)[C@H]2O1)C(=O)O
168 nM

Supply reported Ki belonging to this molecule: NC(CC1(C(=O)O)CC2OCC(O)C(O)C2O1)C(=O)O (stereo not drawn) [9-epi-neoDH, 9-epi-neodysiherbaine]
296 nM
